// data source = patent US8552031B2

# System under test: human TPO receptor (c-mp1) (Homo sapiens)
# Construct: expressed in transfected cells
# Sequence (P40238 26-635): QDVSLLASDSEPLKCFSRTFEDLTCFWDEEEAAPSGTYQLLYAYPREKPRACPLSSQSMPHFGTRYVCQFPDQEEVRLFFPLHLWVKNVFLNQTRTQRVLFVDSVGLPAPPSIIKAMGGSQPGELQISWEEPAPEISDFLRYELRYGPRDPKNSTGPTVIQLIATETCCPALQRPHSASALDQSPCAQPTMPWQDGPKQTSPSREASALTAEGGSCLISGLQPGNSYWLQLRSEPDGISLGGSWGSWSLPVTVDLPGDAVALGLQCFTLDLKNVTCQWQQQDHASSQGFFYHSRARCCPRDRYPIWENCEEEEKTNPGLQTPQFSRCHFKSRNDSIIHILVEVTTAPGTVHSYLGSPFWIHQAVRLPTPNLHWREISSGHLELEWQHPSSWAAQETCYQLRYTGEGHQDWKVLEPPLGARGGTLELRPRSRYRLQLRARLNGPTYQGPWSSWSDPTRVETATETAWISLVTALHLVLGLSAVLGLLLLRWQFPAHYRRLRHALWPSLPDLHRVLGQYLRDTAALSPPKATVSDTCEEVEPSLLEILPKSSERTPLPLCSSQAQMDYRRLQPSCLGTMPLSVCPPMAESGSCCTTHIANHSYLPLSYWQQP
# Assay name: Stimulation of proliferation of TPO-dependent cell line UT7/EPO-mpl (WST-8)
# Assay type: cell-based
# Experimental parameters: concentration that yields a growth rate corresponding to 50% of the growth of UT-7/EPO-mpl observed in the presence of 10 ng/ml TPO; 4 days incubation; read-out: EC50 (converted)
Property measured: EC50 (nM)

Record excerpt, results attached:
COCCCNC(=S)NN=C(C)c1csc(-c2ccc(Cl)c(Cl)c2)c1O [Synthetic Example 23]: 76.3
CC(=NNC(=S)N1CCC(C(=O)O)CC1)c1csc(-c2ccc(Cl)c(Cl)c2)c1O [Synthetic Example 2]: 6.77
CC(=NNC(=S)N1CCC(C(=O)O)CC1)c1csc(-c2ccc(C)c(C)c2)c1O [Synthetic Example 13]: 6.02

A: CC(=NNC(=S)NCCC(=O)O)c1csc(-c2ccc(Cl)c(Cl)c2)c1O [Synthetic Example 6]
B: CC(=NNC(=S)N1CCC(C(=O)O)CC1)c1csc(-c2ccc(Br)cc2)c1O [Synthetic Example 9]
C: COC(=O)CNC(=S)NN=C(C)c1csc(-c2ccc(Cl)c(Cl)c2)c1O [Synthetic Example 3]
D: CC(=NNC(=S)N1CCC(C(=O)O)CC1)c1nn(C)c(-c2ccc(Cl)c(Cl)c2)c1O [Synthetic Example 17]
Order field: EC50 | Direction: descending (largest first) Give the labels in the order specified.
C, A, D, B
(C: 55.5 nM, A: 32.4 nM, D: 16.6 nM, B: 4.77 nM)

a: CC(=NNC(=S)N1CCC(C(=O)O)CC1)c1csc(-c2ccc(Cl)cc2)c1O [Synthetic Example 12]
b: CC(=NNC(=S)N1CCCC(O)C1)c1csc(-c2ccc(Cl)c(Cl)c2)c1O (centres unmarked) [Synthetic Example 21]
Return label of the item with the larger EC50. Candidates: a , b . Answer format: the label of the selected item.
b
(b: 51.8 nM, a: 4.79 nM)

P: COC(=O)CCNC(=S)NN=C(C)c1csc(-c2ccc(Cl)c(Cl)c2)c1O [Synthetic Example 5]
Q: CC(=NNC(=S)N1CCC(CO)CC1)c1csc(-c2ccc(Cl)c(Cl)c2)c1O [Synthetic Example 22]
Identify the item whose EC50 is the smaller number: P or Q Answer format: the label of the selected item.
Q
(Q: 45.8 nM, P: 67.2 nM)
